assay: Mean residence time in ICR mouse at 2 mg/kg by LC-MS/MS analysis; type: ADME, organism-based; conditions: in vivo
PROPERTY: MRT (h)
Write it as a number; the unit h goes unstated.

The reported MRT of the compound CO[C@H]([C@@H](C)[C@H]1O[C@]1(C)C[C@H](C)/C=C/C=C(\C)[C@H]1O[C@@H](CC(=O)O)CC[C@@H]1C)[C@@H](C)O was 4.53
